assay details: recombinant UMI read abundance after kanamycin selection (control-corrected) (log10(CPM+1)); higher = more efficient recombination; extreme values may be limits of the assay; sequences stand for … in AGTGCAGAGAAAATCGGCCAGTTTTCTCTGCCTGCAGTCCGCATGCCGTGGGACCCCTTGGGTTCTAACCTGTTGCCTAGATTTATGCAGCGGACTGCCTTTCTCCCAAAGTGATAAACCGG…AGGTTGGTTTCACT; site = the 11-nt donor
If the reported recombinant UMI read abundance (log10) equals or exceeds 2, assign YES. If not, assign NO.

Examples with answers:
GAAAGTCCATGGACCGGTTTTCCCGGTAATCCGTATTTGTA (site GAAAGTCCTTA) :: NO
GAAGAAGCATGGACCGGTTTTCCCGGTAATCCGTATTTGAG (site GAAGAAGCTCT) :: YES
CTCTACACATGGACCGGTTTTCCCGGTAATCCGTATTTGCT (site CTCAACACTAG) :: NO

Inquiry: In plain terms: is recorded recombinant UMI read abundance (log10) at least 2 for GCGCGCTCATGGACCGGTTTTCCCGGTAATCCGTATTTGAA (site GCGCGCTCTTT) ?
Reply text: NO

Inquiry: In plain terms: is recorded recombinant UMI read abundance (log10) at least 2 for AAGCACACATGGACCGGTTTTCCCGGTAATCCGTATTTGGG (site AAGCACGCTCC) ?
Reply text: NO

Inquiry: In plain terms: is recorded recombinant UMI read abundance (log10) at least 2 for CAATTGACATGGACCGGTTTTCCCGGTAATCCGTATTTGCG (site CAATTGACTCG) ?
Reply text: YES

Inquiry: In plain terms: is recorded recombinant UMI read abundance (log10) at least 2 for CACTTGGCATGGACCGGTTTTCCCGGTAATCCGTATTTGGG (site CACTTGGCTTC) ?
Reply text: NO

Inquiry: In plain terms: is recorded recombinant UMI read abundance (log10) at least 2 for CACGCCCCATGGACCGGTTTTCCCGGTAATCCGTATTTGTT (site CACGACCCTAA) ?
Reply text: NO

Inquiry: In plain terms: is recorded recombinant UMI read abundance (log10) at least 2 for TGTAGACCATGGACCGGTTTTCCCGGTAATCCGTATTTGAC (site TGTAAACCTGT) ?
Reply text: NO

====

Below: a set of entries, each annotated with reported recombinant barcode read abundance (log10).
assay details: recombinant barcode read abundance after kanamycin selection (control-corrected) (log10(CPM+1)); higher = more efficient recombination; sequences stand for … in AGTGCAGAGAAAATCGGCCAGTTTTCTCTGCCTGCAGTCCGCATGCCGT…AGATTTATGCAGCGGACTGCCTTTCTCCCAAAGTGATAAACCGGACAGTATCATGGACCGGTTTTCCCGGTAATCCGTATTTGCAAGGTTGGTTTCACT; site = the 11-nt target
The response must contain the number and no unit.

Solved cases (3 shown):
GGAAGTTCTTGGGTTCTAACCTGTTGCCT (site GCAAGTTCTAG) :: 0.0862
TCAGTATCTTGGGTTCTAACCTGTTGCCT (site TCAGCATCTAG) :: 0.533
TGAAATGCTTGGGTTCTAACCTGTTGCCT (site TGAGATGCTAG) :: 0.256

Inquiry: Please list recombinant barcode read abundance (log10) recorded for the sequence GGCACCACTTGGGTTCTAACCTGTTGCCG (site TCTTGACCTAA)
Reply text: 0.251

Inquiry: Please list recombinant barcode read abundance (log10) recorded for the sequence AAAGCTACTTGGGTTCTAACCTGTTGCTA (site AAAGCTACTTA)
Reply text: 0.86

Inquiry: Please list recombinant barcode read abundance (log10) recorded for the sequence TACAGCTCTTGGGTTCTAACCTGTTGCTT (site TACAGCTCTAA)
Reply text: 0.016

Inquiry: Please list recombinant barcode read abundance (log10) recorded for the sequence GCTTTGCCTTGGGTTCTAACCTGTTGCCT (site GCTTTGCCTAG)
Reply text: 0.409

Inquiry: Please list recombinant barcode read abundance (log10) recorded for the sequence TCTCACTCTTGGGTTCTAACCTGTTGCCT (site TCCCACTCTAG)
Reply text: 0.504

Inquiry: Please list recombinant barcode read abundance (log10) recorded for the sequence CTCTTGGCTTGGGTTCTAACCTGTTGCCT (site CTCTAGGCTAG)
Reply text: 0.261

Inquiry: Please list recombinant barcode read abundance (log10) recorded for the sequence TACAGCTCTTGGGTTCTAACCTGTTGCTT (site TACCGCTCTAA)
Reply text: 0.104

====

assay details: recombinant barcode read abundance after kanamycin selection (control-corrected) (log10(CPM+1)); higher = more efficient recombination; sequences stand for … in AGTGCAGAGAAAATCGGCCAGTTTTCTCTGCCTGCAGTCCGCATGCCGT…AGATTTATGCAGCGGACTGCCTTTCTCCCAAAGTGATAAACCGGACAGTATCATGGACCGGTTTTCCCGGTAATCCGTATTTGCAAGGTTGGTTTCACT; site = the 11-nt target
If the reported recombinant barcode read abundance (log10) equals or exceeds 0.07, assign condition met. If not, assign condition not met.

Examples with answers:
GTACGCTCTTGGGTTCTAACCTGTTGCTT (site GGAAGCTCTAA) :: condition not met
GCCATTCCTTGGGTTCTAACCTGTTGCAT (site GCCATTCCTAT) :: condition met

Inquiry: In plain terms: is recorded recombinant barcode read abundance (log10) at least 0.07 for ATGGCGCCTTGGGTTCTAACCTGTTGCCT (site AAGGCGCCTAG) ?
Reply text: condition met

Inquiry: In plain terms: is recorded recombinant barcode read abundance (log10) at least 0.07 for ATGCATCCTTGGGTTCTAACCTGTTGCCT (site AAGCATCCTAG) ?
Reply text: condition not met

Inquiry: In plain terms: is recorded recombinant barcode read abundance (log10) at least 0.07 for TACCCGACTTGGGTTCTAACCTGTTGCCT (site TACCCGACTAG) ?
Reply text: condition met

Inquiry: In plain terms: is recorded recombinant barcode read abundance (log10) at least 0.07 for CAGGGGACTTGGGTTCTAACCTGTTGCCG (site CAGGGGACTCG) ?
Reply text: condition met

Inquiry: In plain terms: is recorded recombinant barcode read abundance (log10) at least 0.07 for AATTGTCCTTGGGTTCTAACCTGTTGCGT (site AATTGTCCTAT) ?
Reply text: condition not met

Inquiry: In plain terms: is recorded recombinant barcode read abundance (log10) at least 0.07 for ACATGTACTTGGGTTCTAACCTGTTGCAT (site ACATGTACTAT) ?
Reply text: condition met

====

assay details: recombinant UMI read abundance after kanamycin selection (control-corrected) (log10(CPM+1)); higher = more efficient recombination; extreme values may be limits of the assay; sequences stand for … in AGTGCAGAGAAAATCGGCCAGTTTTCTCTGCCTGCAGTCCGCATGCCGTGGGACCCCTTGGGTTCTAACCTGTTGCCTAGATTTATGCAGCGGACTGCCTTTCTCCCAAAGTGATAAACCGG…AGGTTGGTTTCACT; site = the 11-nt donor
assay readout: recombinant UMI read abundance (log10)
The response must contain the number and no unit.

CGTAATACATGGACCGGTTTTCCCGGTAATCCGTATTTGGC (site CCTAATACTGC) :: 0

Inquiry: Please list recombinant UMI read abundance (log10) recorded for the sequence ACCGGTCCATGGACCGGTTTTCCCGGTAATCCGTATTTGCA (site ACCGGTCCTTG)
Reply text: 0

Inquiry: Please list recombinant UMI read abundance (log10) recorded for the sequence CGTTGCTCATGGACCGGTTTTCCCGGTAATCCGTATTTGAT (site CGTTGCTCTAT)
Reply text: 1.8

Inquiry: Please list recombinant UMI read abundance (log10) recorded for the sequence CGAGGACCATGGACCGGTTTTCCCGGTAATCCGTATTTGGG (site CGAGGATCTCC)
Reply text: 0.156

Inquiry: Please list recombinant UMI read abundance (log10) recorded for the sequence AGATAGACATGGACCGGTTTTCCCGGTAATCCGTATTTGCC (site AGATAGACTGG)
Reply text: 3.03

Inquiry: Please list recombinant UMI read abundance (log10) recorded for the sequence TCGAATTCATGGACCGGTTTTCCCGGTAATCCGTATTTGCC (site TCTAATTCTGG)
Reply text: 0.193

Inquiry: Please list recombinant UMI read abundance (log10) recorded for the sequence CGATTACCATGGACCGGTTTTCCCGGTAATCCGTATTTGAT (site CGATTACCTAT)
Reply text: 0

Inquiry: Please list recombinant UMI read abundance (log10) recorded for the sequence CCCGGTCCATGGACCGGTTTTCCCGGTAATCCGTATTTGCA (site CCCGGTCCTTC)
Reply text: 0

Inquiry: Please list recombinant UMI read abundance (log10) recorded for the sequence GCGAAAACATGGACCGGTTTTCCCGGTAATCCGTATTTGCC (site GCGAAAACTGG)
Reply text: 0

====

assay details: recombinant barcode read abundance after kanamycin selection (control-corrected) (log10(CPM+1)); higher = more efficient recombination; sequences stand for … in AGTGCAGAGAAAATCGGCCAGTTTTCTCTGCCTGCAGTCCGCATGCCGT…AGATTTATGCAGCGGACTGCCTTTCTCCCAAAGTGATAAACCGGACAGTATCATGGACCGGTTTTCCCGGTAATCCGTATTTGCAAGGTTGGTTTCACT; site = the 11-nt target
assay readout: recombinant barcode read abundance (log10)

TTGACATCTTGGGTTCTAACCTGTTGCCT (site TTGACATCTAG) :: 0.216
TCGCGGCCTTGGGTTCTAACCTGTTGCCT (site CCGCGGCCTAG) :: 0.105
CTATGGACTTGGGTTCTAACCTGTTGCAC (site CTATGGACTTT) :: 0.0443

Inquiry: Please list recombinant barcode read abundance (log10) recorded for the sequence TTGTCGACTTGGGTTCTAACCTGTTGCCA (site TTGGCGACTTG)
Reply text: 0.00572

Inquiry: Please list recombinant barcode read abundance (log10) recorded for the sequence GTGAGGACTTGGGTTCTAACCTGTTGCCA (site GTGAGGACTTG)
Reply text: 1.53
